Measurement Description: Inhibition of rat intestinal maltase using maltose as substrate at pH 6.8 by colorimetric method
Format: tissue-based, Intestine
pIC50: −log10 of the molar value.
Outcome: Criterion met for pIC50 of at least 4; Criterion not met for anything lower.

1. OC[C@@H]1[C@@H](O)[C@H](O)[C@H]2C[C@H](O)CN12 ... Criterion not met

INPUT: Assess whether reported pIC50 for `OC[C@@H]1[C@@H](O)[C@H](O)[C@H]2C[C@@H](O)CN12` sits at 4 or higher.
OUTPUT: Criterion met

INPUT: Assess whether reported pIC50 for `OC[C@@H]1[C@@H](O)[C@H](O)[C@H]2[C@@H](O)[C@@H](F)CN21` sits at 4 or higher.
OUTPUT: Criterion not met

INPUT: Assess whether reported pIC50 for `OC[C@@H]1[C@@H](O)[C@H](O)[C@H]2[C@H](O)[C@@H](F)CN21` sits at 4 or higher.
OUTPUT: Criterion not met

INPUT: Assess whether reported pIC50 for `OC[C@@H]1[C@@H](O)[C@H](O)[C@H]2[C@H](O)C(F)(F)CN21` sits at 4 or higher.
OUTPUT: Criterion not met

###

Organism: Bos taurus
Measurement Description: Inhibition of bovine liver beta-glucuronidase using p-nitrophenyl glycoside as substrate at 1000 uM by spectrometric method relative to control
Type: tissue-based
Readout Name: inhibition (%)
State just the number; it will be interpreted in %.

1. OC[C@@H]1[C@@H](O)[C@H](O)[C@H]2[C@@H](O)[C@@H](F)CN21 ... 13.3
2. OC[C@@H]1[C@@H](O)[C@H](O)[C@H]2CC(F)(F)CN12 ... 0
3. OC[C@@H]1[C@@H](O)[C@H](O)[C@H]2[C@@H](O)C(F)(F)CN21 ... 10.1
4. OC[C@@H]1[C@@H](O)[C@H](O)[C@H]2[C@H](O)[C@@H](F)CN21 ... 33.2
5. OC[C@@H]1[C@@H](O)[C@H](O)[C@H]2C[C@H](F)CN12 ... 14.8
6. OC[C@@H]1[C@@H](O)[C@H](O)[C@H]2C[C@@H](O)CN12 ... 10.8
7. OC[C@@H]1[C@@H](O)[C@H](O)[C@H]2C[C@H](O)CN12 ... 14
8. OC[C@@H]1[C@@H](O)[C@H](O)[C@H]2[C@@H](O)[C@H](F)CN21 ... 23.1
9. OC[C@@H]1[C@@H](O)[C@H](O)[C@H]2C[C@@H](F)CN12 ... 21.9
10. OC[C@@H]1[C@@H](O)[C@H](O)[C@H]2[C@H](O)C(F)(F)CN21 ... 15.9

Consider the record given below.
INPUT: Return inhibition for the following compound: `OC[C@@H]1[C@@H](O)[C@H](O)[C@H]2[C@H](O)[C@H](F)CN21`
OUTPUT: 11.6

###

System: Penicillium decumbens
Measurement Description: Inhibition of Penicillium decumbens alpha-L-rhamnosidase using p-nitrophenyl glycoside as substrate at 1000 uM by spectrometric method relative to control
Note that class boundaries on inhibition are low-valued = under 3%, mid-valued = from 3% up to 6%, high-valued = 6% and over

Reference set, count: 8
1. OC[C@@H]1[C@@H](O)[C@H](O)[C@H]2C[C@H](F)CN12 ... high-valued
2. OC[C@@H]1[C@@H](O)[C@H](O)[C@H]2C[C@@H](O)CN12 ... high-valued
3. OC[C@@H]1[C@@H](O)[C@H](O)[C@H]2[C@H](O)C(F)(F)CN21 ... mid-valued
4. OC[C@@H]1[C@@H](O)[C@H](O)[C@H]2[C@@H](O)C(F)(F)CN21 ... low-valued
5. OC[C@@H]1[C@@H](O)[C@H](O)[C@H]2C[C@@H](F)CN12 ... mid-valued
6. OC[C@@H]1[C@@H](O)[C@H](O)[C@H]2[C@H](O)[C@@H](F)CN21 ... high-valued
7. OC[C@@H]1[C@@H](O)[C@H](O)[C@H]2[C@@H](O)[C@@H](F)CN21 ... low-valued
8. OC[C@@H]1[C@@H](O)[C@H](O)[C@H]2C[C@H](O)CN12 ... high-valued

Now for another entry.
INPUT: Form field 'band' for `OC[C@@H]1[C@@H](O)[C@H](O)[C@H]2[C@@H](O)[C@H](F)CN21`
OUTPUT: low-valued

###

Recorded IC50 for the following compounds
Measurement Description: Inhibition of Aspergillus niger amyloglucosidase
State just the number; it will be interpreted in µM.

Illustrative cases are given below, each with its answer.
1. OC[C@@H]1[C@@H](O)[C@H](O)[C@H]2[C@H](O)[C@H](O)CN21 ... 5.3
2. OC[C@@H]1[C@@H](O)[C@H](O)[C@H]2[C@H](F)[C@@H](O)CN21 ... 5.3
3. OC[C@@H]1[C@@H](O)[C@H](O)[C@H]2[C@H](O)[C@@H](O)CN21 [CASUARINE] ... 6.3
4. OC[C@@H]1[C@@H](O)[C@H](O)[C@@H]2N1C[C@H](O)C2(F)F ... 39

Consider the record given below.
INPUT: Return IC50 for the following compound: `OC[C@@H]1[C@@H](O)[C@H](O)[C@H]2[C@@H](O)[C@@H](O)CN21`
OUTPUT: 64

###

Recorded inhibition for the following compounds
Assayed Target: Tissue alpha-L-fucosidase (Bos taurus)
Measurement Description: Inhibition of bovine kidney alpha-L-fucosidase using p-nitrophenyl glycoside as substrate at 1000 uM by spectrometric method relative to control
Assay type: tissue-based
State just the number; it will be interpreted in %.

Illustrative cases are given below, each with its answer.
1. OC[C@@H]1[C@@H](O)[C@H](O)[C@H]2[C@H](O)[C@@H](F)CN21 ... 14.6
2. OC[C@@H]1[C@@H](O)[C@H](O)[C@H]2C[C@@H](O)CN12 ... 14.8
3. OC[C@@H]1[C@@H](O)[C@H](O)[C@H]2[C@@H](O)[C@@H](F)CN21 ... 14
4. OC[C@@H]1[C@@H](O)[C@H](O)[C@H]2CC(F)(F)CN12 ... 0
5. OC[C@@H]1[C@@H](O)[C@H](O)[C@H]2C[C@H](F)CN12 ... 0
6. OC[C@@H]1[C@@H](O)[C@H](O)[C@H]2[C@H](O)C(F)(F)CN21 ... 6.8
7. OC[C@@H]1[C@@H](O)[C@H](O)[C@H]2[C@@H](O)[C@H](F)CN21 ... 0
8. OC[C@@H]1[C@@H](O)[C@H](O)[C@H]2[C@H](O)[C@H](F)CN21 ... 7.6
9. OC[C@@H]1[C@@H](O)[C@H](O)[C@H]2[C@@H](O)C(F)(F)CN21 ... 6.4
10. OC[C@@H]1[C@@H](O)[C@H](O)[C@H]2C[C@H](O)CN12 ... 0

INPUT: Return inhibition for the following compound: `OC[C@@H]1[C@@H](O)[C@H](O)[C@H]2C[C@@H](F)CN12`
OUTPUT: 0.9

###

Assayed Target: Alpha-glucosidase (Saccharomyces cerevisiae S288c) (UniProt P53341+P38158+P07265)
Measurement Description: Inhibition of yeast alpha-glucosidase using p-nitrophenyl glycoside as substrate at 1000 uM by spectrometric method relative to control
Format: protein assay
Recorded inhibition for the following molecules
State just the number; it will be interpreted in %.

Illustrative cases are given below, each with its answer.
1) OC[C@@H]1[C@@H](O)[C@H](O)[C@H]2[C@@H](O)C(F)(F)CN21 ... 5.6
2) OC[C@@H]1[C@@H](O)[C@H](O)[C@H]2[C@@H](O)[C@@H](F)CN21 ... 18
3) OC[C@@H]1[C@@H](O)[C@H](O)[C@H]2C[C@@H](F)CN12 ... 30.1
4) OC[C@@H]1[C@@H](O)[C@H](O)[C@H]2CC(F)(F)CN12 ... 3.6

Consider the record given below.
INPUT: Return inhibition for the following molecule: `OC[C@@H]1[C@@H](O)[C@H](O)[C@H]2[C@H](O)[C@@H](F)CN21`
OUTPUT: 41.9

###

Measurement Description: Inhibition of Aspergillus niger amyloglucosidase using p-nitrophenyl glycoside as substrate by spectrometric method
Readout Name: IC50 (µM)
State just the number; it will be interpreted in µM.

Illustrative cases are given below, each with its answer.
1. OC[C@@H]1[C@@H](O)[C@H](O)[C@H]2C[C@@H](F)CN12 ... 633
2. OC[C@@H]1[C@@H](O)[C@H](O)[C@H]2C[C@H](O)CN12 ... 42
3. OC[C@@H]1[C@@H](O)[C@H](O)[C@H]2CC(F)(F)CN12 ... 27
4. OC[C@@H]1[C@@H](O)[C@H](O)[C@H]2C[C@H](F)CN12 ... 2.2
5. OC[C@@H]1[C@@H](O)[C@H](O)[C@H]2[C@H](O)[C@@H](F)CN21 ... 35

INPUT: Return IC50 for the following compound: `OC[C@@H]1[C@@H](O)[C@H](O)[C@H]2[C@@H](O)[C@@H](F)CN21`
OUTPUT: 248

INPUT: Return IC50 for the following compound: `OC[C@@H]1[C@@H](O)[C@H](O)[C@H]2[C@@H](O)C(F)(F)CN21`
OUTPUT: 246

INPUT: Return IC50 for the following compound: `OC[C@@H]1[C@@H](O)[C@H](O)[C@H]2[C@H](O)C(F)(F)CN21`
OUTPUT: 2.1

INPUT: Return IC50 for the following compound: `OC[C@@H]1[C@@H](O)[C@H](O)[C@H]2[C@H](O)[C@H](F)CN21`
OUTPUT: 0.14

INPUT: Return IC50 for the following compound: `OC[C@@H]1[C@@H](O)[C@H](O)[C@H]2[C@@H](O)[C@H](F)CN21`
OUTPUT: 11

INPUT: Return IC50 for the following compound: `OC[C@@H]1[C@@H](O)[C@H](O)[C@H]2C[C@@H](O)CN12`
OUTPUT: 40
